These measurements were taken from ChEMBL document CHEMBL1126899.

Test system: Rattus norvegicus
Assay: Peak percent inhibition of Angiotensin II pressor response in conscious, normotensive rats at 0.1 mg/kg iv
Assay type: functional
reported-metric: inhibition in vivo at 0.1 mg/kg (%)
Give bare numbers, in %.

Examples from the recorded data:
CCCCc1nn(Cc2ccccc2)c(C(=O)O)c1Cc1ccc(-c2ccccc2-c2nn[nH]n2)cc1
68
CCCCc1nn(-c2ccccc2C(F)(F)F)c(C(=O)O)c1Cc1ccc(-c2ccccc2-c2nn[nH]n2)cc1
57
CCCCc1nn(-c2c(Cl)cccc2Cl)c(C(=O)O)c1Cc1ccc(-c2ccccc2-c2nn[nH]n2)cc1
80

Field: inhibition in vivo at 0.1 mg/kg. Fill in for each record below.
1. CCCc1nn(-c2c(Cl)cccc2Cl)c(C(=O)O)c1Cc1ccc(-c2ccccc2-c2nn[nH]n2)cc1
2. CCCc1nn(CC(F)(F)F)c(C(=O)O)c1Cc1ccc(-c2ccccc2-c2nn[nH]n2)cc1

[60, 62]

----------
Tested on: Rattus norvegicus
Assay: Time to produce onset of action for inhibition of Angiotensin II pressor response in conscious, normotensive rats at 1 mg/kg iv
Format: functional
For each entry below, report its Duration value.

CCCc1nn(-c2ccccc2C(F)(F)F)c(C(=O)O)c1Cc1ccc(-c2ccccc2-c2nn[nH]n2)cc1
>6 h
CCCCc1nn(-c2ccccc2Cl)c(C(=O)O)c1Cc1ccc(-c2ccccc2-c2nn[nH]n2)cc1
>6 h

Field: Duration. Fill in for each record below.
1. CCCCc1n[nH]c(C(=O)OCC)c1Cc1ccc(-c2ccccc2-c2nn[nH]n2)cc1
2. CCCCc1nn(-c2ccccc2C(F)(F)F)c(C(=O)O)c1Cc1ccc(-c2ccccc2-c2nn[nH]n2)cc1
3. CCCc1nn(-c2c(Cl)cccc2Cl)c(C(=O)O)c1Cc1ccc(-c2ccccc2-c2nn[nH]n2)cc1
4. CCCCc1nn(CCc2ccccc2)c(C(=O)O)c1Cc1ccc(-c2ccccc2-c2nn[nH]n2)cc1

[">5 h", "5.3 h", ">6 h", ">24 h"]

----------
For each entry below, report its IC50 value.
Molecular target: UniProt:P34976
Assay: Evaluation of Angiotensin II antagonistic activity by displacement of [125I]-Sar Ile-AII at the rabbit aorta Angiotensin II receptor, type 1
One number for each entry, in nM.

Examples from the recorded data:
CCCc1nn(-c2ccccc2C(F)(F)F)c(C(=O)O)c1Cc1ccc(-c2ccccc2-c2nn[nH]n2)cc1
0.67
CCCc1nn(-c2c(Cl)cccc2Cl)c(C(=O)O)c1Cc1ccc(-c2ccccc2-c2nn[nH]n2)cc1
0.69
CCCCc1nn(-c2ccccc2Cl)c(C(=O)OCC)c1Cc1ccc(-c2ccccc2-c2nn[nH]n2)cc1
13
O=C(O)c1c(Cc2ccc(-c3ccccc3-c3nn[nH]n3)cc2)c(CC2CC2)nn1-c1c(Cl)cccc1Cl
3.7
CCCCc1nn(-c2ccccc2Cl)c(C(=O)O)c1Cc1ccc(-c2ccccc2-c2nn[nH]n2)cc1
0.35
CCCCc1nn(-c2cccc(Cl)c2Cl)c(C(=O)O)c1Cc1ccc(-c2ccccc2-c2nnn[nH]2)cc1
0.77
CCCCc1nn(-c2c(Cl)cc(Cl)cc2Cl)c(C(=O)OCC)c1Cc1ccc(-c2ccccc2-c2nn[nH]n2)cc1
37

Determine from records and report IC50 for CCCCc1nn(-c2cccc(Cl)c2Cl)c(C(=O)OCC)c1Cc1ccc(-c2ccccc2-c2nnn[nH]2)cc1
90

----------
Tested on: Rattus norvegicus
Experiment: Peak percent inhibition of Angiotensin II pressor response in conscious, normotensive rats at 0.3 mg/kg iv
Format: functional
reported-metric: inhibition in vivo at 0.3 mg/kg (%)
Answers are plain numbers, in %.

CCCc1nn(Cc2ccccc2)c(C(=O)O)c1Cc1ccc(-c2ccccc2-c2nn[nH]n2)cc1
95

Field: inhibition in vivo at 0.3 mg/kg. Fill in for each record below.
1. CCCc1nn(-c2ccccc2C(F)(F)F)c(C(=O)O)c1Cc1ccc(-c2ccccc2-c2nn[nH]n2)cc1
2. CCCCc1nn(-c2ccccc2Cl)c(C(=O)O)c1Cc1ccc(-c2ccccc2-c2nn[nH]n2)cc1
3. CCCc1nn(CC(F)(F)F)c(C(=O)O)c1Cc1ccc(-c2ccccc2-c2nn[nH]n2)cc1

1. 77
2. 73
3. 93

----------
System: Rattus norvegicus
Assay: Peak percent inhibition of Angiotensin II pressor response in conscious, normotensive rats at 1 mg/kg po
Type: functional
For each entry below, report its inhibition in vivo at 1 mg/kg value.
Numbers only, in %.

Examples from the recorded data:
CCCc1nn(CC(F)(F)F)c(C(=O)O)c1Cc1ccc(-c2ccccc2-c2nn[nH]n2)cc1
75
CCCc1nn(-c2ccccc2C(F)(F)F)c(C(=O)O)c1Cc1ccc(-c2ccccc2-c2nn[nH]n2)cc1
71
CCCc1nn(Cc2ccccc2)c(C(=O)O)c1Cc1ccc(-c2ccccc2-c2nn[nH]n2)cc1
100

Field: inhibition in vivo at 1 mg/kg. Fill in for each record below.
1. CCCCc1nn(-c2ccccc2Cl)c(C(=O)OCC)c1Cc1ccc(-c2ccccc2-c2nn[nH]n2)cc1
2. CCCCc1nn(-c2ccccc2Cl)c(C(=O)O)c1Cc1ccc(-c2ccccc2-c2nn[nH]n2)cc1
3. CCCCc1nn(-c2c(Cl)cccc2Cl)c(C(=O)O)c1Cc1ccc(-c2ccccc2-c2nn[nH]n2)cc1

1: 50; 2: 64; 3: 79

Field: inhibition in vivo at 1 mg/kg. Fill in for each record below.
1. CCCCc1nn(Cc2ccccc2)c(C(=O)O)c1Cc1ccc(-c2ccccc2-c2nn[nH]n2)cc1
2. CCCc1nn(-c2c(Cl)cccc2Cl)c(C(=O)O)c1Cc1ccc(-c2ccccc2-c2nn[nH]n2)cc1

[100, 87]

----------
For each entry below, report its IC50 value.
Target: Type-1 angiotensin II receptor (Oryctolagus cuniculus)
Assay: Evaluation of Angiotensin II antagonistic activity by displacement of [125I]-Sar Ile-AII at the rabbit aorta Angiotensin II receptor, type 1
Assay type: tissue-based
Numbers only, in nM.

Examples from the recorded data:
CCCCc1nn(-c2c(Cl)cc(Cl)cc2Cl)c(C(=O)O)c1Cc1ccc(-c2ccccc2-c2nnn[nH]2)cc1
0.5
CCCCc1nn(-c2ccc(Cl)cc2Cl)c(C(=O)OCC)c1Cc1ccc(-c2ccccc2-c2nnn[nH]2)cc1
6.7
CCCc1nn(-c2c(Cl)cccc2Cl)c(C(=O)OCC)c1Cc1ccc(-c2ccccc2-c2nn[nH]n2)cc1
20

Field: IC50. Fill in for each record below.
1. CCCCc1nn(-c2ccccn2)c(C(=O)O)c1Cc1ccc(-c2ccccc2-c2nn[nH]n2)cc1
2. CCCCc1nn(-c2ccc(Cl)cc2Cl)c(C(=O)O)c1Cc1ccc(-c2ccccc2-c2nn[nH]n2)cc1
3. CCCCc1nn(-c2cccc(Cl)c2)c(C(=O)OCC)c1Cc1ccc(-c2ccccc2-c2nn[nH]n2)cc1
4. CCCCc1nn(CC)c(C(=O)O)c1Cc1ccc(-c2ccccc2-c2nn[nH]n2)cc1

1.7
0.6
55
2.7

----------
Biological target: Type-1 angiotensin II receptor (Oryctolagus cuniculus, UniProt P34976)
Sequence (P34976 whole entry): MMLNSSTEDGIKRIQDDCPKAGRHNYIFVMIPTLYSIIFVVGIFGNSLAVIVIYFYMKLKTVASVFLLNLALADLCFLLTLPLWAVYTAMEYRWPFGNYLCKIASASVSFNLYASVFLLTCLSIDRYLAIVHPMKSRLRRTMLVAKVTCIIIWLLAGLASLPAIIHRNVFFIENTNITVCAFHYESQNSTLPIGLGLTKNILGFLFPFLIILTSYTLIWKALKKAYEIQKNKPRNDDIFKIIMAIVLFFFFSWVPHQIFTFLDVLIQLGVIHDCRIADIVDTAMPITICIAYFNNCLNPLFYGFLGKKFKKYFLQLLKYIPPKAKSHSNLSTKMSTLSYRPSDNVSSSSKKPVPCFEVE
Assay: Evaluation of Angiotensin II antagonistic activity by displacement of [125I]-Sar Ile-AII at the rabbit aorta Angiotensin II receptor, type 1
pIC50: −log10 of the molar value.
We use 8 as the dividing line for pIC50: on or above the line is 1 (yes), below is 0 (no).

These solved cases illustrate the format of a correct answer.
CCCCc1nn(-c2ccccc2-c2ccccc2)c(C(=O)O)c1Cc1ccc(-c2ccccc2-c2nnn[nH]2)cc1
1 (yes)
CCCCc1nn(-c2ccc(OC)cc2)c(C(=O)OCC)c1Cc1ccc(-c2ccccc2-c2nnn[nH]2)cc1
0 (no)
CCCc1nn(CC(F)(F)F)c(C(=O)OCC)c1Cc1ccc(-c2ccccc2-c2nnn[nH]2)cc1
0 (no)
CCCCc1nn(-c2ccc(Cl)cc2)c(C(=O)OCC)c1Cc1ccc(-c2ccccc2-c2nn[nH]n2)cc1
0 (no)
CCCCc1nn(-c2ccccn2)c(C(=O)OCC)c1Cc1ccc(-c2ccccc2-c2nnn[nH]2)cc1
0 (no)

Assess whether reported pIC50 for CCCCc1nn(CC(F)(F)F)c(C(=O)O)c1Cc1ccc(-c2ccccc2-c2nn[nH]n2)cc1 sits at 8 or higher.
1 (yes)

Assess whether reported pIC50 for CCCCc1nn(-c2ccccc2)c(C(=O)OCC)c1Cc1ccc(-c2ccccc2-c2nnn[nH]2)cc1 sits at 8 or higher.
0 (no)

----------
Target: Type-1 angiotensin II receptor (Oryctolagus cuniculus)
Test: Evaluation of Angiotensin II antagonistic activity by displacement of [125I]-Sar Ile-AII at the rabbit aorta Angiotensin II receptor, type 1
For each entry below, report its IC50 value.
Answers are plain numbers, in nM.

Examples from the recorded data:
CCCCc1nn(-c2cc(Cl)ccc2Cl)c(C(=O)O)c1Cc1ccc(-c2ccccc2-c2nnn[nH]2)cc1
3.2
CCCCc1nn(-c2ccc(OC)cc2)c(C(=O)O)c1Cc1ccc(-c2ccccc2-c2nn[nH]n2)cc1
0.8
CCCCc1nn(-c2c(Cl)cccc2Cl)c(C(=O)O)c1Cc1ccc(-c2ccccc2-c2nn[nH]n2)cc1
0.18
CCCCc1nc(-c2ccccc2)c(C(=O)O)n1Cc1ccc(-c2ccccc2-c2nn[nH]n2)cc1
2.1

Field: IC50. Fill in for each record below.
1. CCCCc1nn(-c2ccccc2[N+](=O)[O-])c(C(=O)O)c1Cc1ccc(-c2ccccc2-c2nnn[nH]2)cc1
2. CCCc1nn(Cc2ccccc2)c(C(=O)O)c1Cc1ccc(-c2ccccc2-c2nn[nH]n2)cc1
3. CCCc1nc(C(F)(F)C(F)(F)F)c(C(=O)O)n1Cc1ccc(-c2ccccc2-c2nnn[nH]2)cc1
4. CCCCc1nn(-c2ccccc2C)c(C(=O)O)c1Cc1ccc(-c2ccccc2-c2nn[nH]n2)cc1
5. CCCCc1nn(-c2ccc(Cl)cc2)c(C(=O)O)c1Cc1ccc(-c2ccccc2-c2nn[nH]n2)cc1

1.7
0.42
1.1
0.46
1.3

Field: IC50. Fill in for each record below.
1. CCCCc1nn(-c2ccc(OC)cc2[N+](=O)[O-])c(C(=O)O)c1Cc1ccc(-c2ccccc2-c2nnn[nH]2)cc1
2. CCCCc1nn(-c2ccccc2)c(C(=O)O)c1Cc1ccc(-c2ccccc2-c2nn[nH]n2)cc1
3. CCCCc1nn(Cc2ccccc2)c(C(=O)O)c1Cc1ccc(-c2ccccc2-c2nn[nH]n2)cc1

1: 2.5; 2: 2.9; 3: 0.2

Field: IC50. Fill in for each record below.
1. CCCc1[nH]nc(C(=O)OCC)c1Cc1ccc(-c2ccccc2-c2nnn[nH]2)cc1
2. CCCCc1nn(-c2cccc(Cl)c2)c(C(=O)O)c1Cc1ccc(-c2ccccc2-c2nn[nH]n2)cc1

1: 160; 2: 2.3

Field: IC50. Fill in for each record below.
1. CCCCc1nc(-c2ccccc2Cl)c(C(=O)O)n1Cc1ccc(-c2ccccc2-c2nn[nH]n2)cc1
2. CCCc1nn(CC(F)(F)F)c(C(=O)O)c1Cc1ccc(-c2ccccc2-c2nn[nH]n2)cc1

0.55
1.6
